- ASSAY_NAME: Bioavailability in rat
- Assay type: ADME, organism-based
- REPORTED_CONDITIONS: in vivo, read-out: Bioavailabiility
READOUT_KIND: bioavailability (%)
One number for each entry, in %.

Task item: # lookup: bioavailability of CC(C)C(NC(=O)Cn1c(-c2ccc(F)cc2)ncc(N)c1=O)C(=O)C(F)(F)F (stereo unspecified)
Reply: 62

###

- ASSAY_NAME: Partition coefficient (logP)
- Assay type: physicochemical
- REPORTED_CONDITIONS: octanol/water
READOUT_KIND: logP

Task item: # lookup: logP of CC(C)C(NC(=O)Cn1c(-c2ccccc2)ccc(NC(=O)OCc2ccccc2)c1=O)C(=O)C(F)(F)F (stereo unspecified)
Reply: > 4

###

- ASSAY_NAME: Bioavailability was evaluated in hamster
- Assay type: ADME, organism-based
- REPORTED_CONDITIONS: cricetinae, in vivo; read-out: Bioavailabiility
READOUT_KIND: bioavailability (%)
Give bare numbers, in %.

Task item: # lookup: bioavailability of CC(C)C(NC(=O)Cn1c(-c2ccc(F)cc2)ncc(N)c1=O)C(=O)C(F)(F)F (stereo unspecified)
Reply: 77
